Test system: Klebsiella pneumoniae
testProtocol: Antimicrobial activity against Klebsiella pneumonia MTCC 109 assessed as absence of visible growth after 24 hrs
parameterMeasured: MIC (µg/mL)

N#CC1=C(N)C2(C(=O)c3ccccc3C2=O)[C@@H](c2ccc(Cl)cc2)[C@@H]2CCCCC=C12 (relative stereo)
125
N#CC1=C(N)[C@]2(C(=O)Nc3ccccc32)[C@@H](c2ccc(Br)cc2)[C@@H]2CCCC=C12
500
Cc1ccc([C@H]2[C@@H]3CCCCC=C3C(C#N)=C(N)C23C(=O)c2ccccc2C3=O)cc1 (relative stereo)
62.5
N#CC1=C(N)C2(C(=O)c3ccccc3C2=O)[C@@H](c2ccccc2F)[C@@H]2CCC=C12 (relative stereo)
250
Cc1ccc([C@H]2[C@@H]3CCCC=C3C(C#N)=C(N)[C@]23C(=O)Nc2ccccc23)cc1
500
N#CC1=C(N)C2(C(=O)c3ccccc3C2=O)[C@@H](c2cccc3ccccc23)[C@@H]2CCCC=C12 (relative stereo)
125
N#CC1=C(N)[C@]2(C(=O)Nc3ccccc32)[C@@H](c2ccc(Cl)cc2)[C@@H]2CCCC=C12
125

----------
System: Klebsiella aerogenes
testProtocol: Antimicrobial activity against Enterobacter aerogenes MTCC 111 assessed as absence of visible growth after 48 to 72 hrs
Assay type: functional
Known MIC of a selection of molecules
parameterMeasured: MIC

COc1ccc([C@H]2[C@@H]3CCCC=C3C(C#N)=C(N)C23C(=O)CCCC3=O)cc1 (relative stereo)
250 µg/mL
N#CC1=C(N)[C@]2(C(=O)Nc3ccccc32)[C@@H](c2cccc3ccccc23)[C@@H]2CCCC=C12
125 µg/mL
N#CC1=C(N)[C@]2(C(=O)Nc3ccccc32)[C@@H](c2ccccc2F)[C@@H]2CCCC=C12 (mixture of isomers)
250 µg/mL
N#CC1=C(N)C2(C(=O)c3ccccc3C2=O)[C@@H](c2ccc(Cl)cc2)[C@@H]2CCCCC=C12 (relative stereo)
125 µg/mL
N#CC1=C(N)C2(C(=O)c3ccccc3C2=O)[C@@H](c2ccoc2)[C@@H]2CCCC=C12 (relative stereo)
250 µg/mL
CN[C@@H]1[C@H](O[C@H]2[C@H](O[C@H]3[C@H](O)[C@@H](O)[C@H](N=C(N)N)[C@@H](O)[C@@H]3N=C(N)N)O[C@@H](C)[C@]2(O)C=O)O[C@@H](CO)[C@H](O)[C@H]1O
25 µg/mL

----------
Test system: Proteus vulgaris
testProtocol: Antimicrobial activity against Proteus vulgaris MTCC 1771 assessed as absence of visible growth after 48 to 72 hrs
Type: functional
Listed next: entries and their corresponding MIC.
parameterMeasured: MIC (µg/mL)

N#CC1=C(N)C2(C(=O)c3ccccc3C2=O)[C@@H](c2ccccc2F)[C@@H]2CCC=C12 (relative stereo)
250
Cc1ccc([C@H]2[C@@H]3CCCCC=C3C(C#N)=C(N)[C@]23C(=O)Nc2ccccc23)cc1
250
N#CC1=C(N)C2(C(=O)c3ccccc3C2=O)[C@@H](c2cccs2)[C@@H]2CCCC=C12 (relative stereo)
62.5
N#CC1=C(N)C2(C(=O)c3ccccc3C2=O)[C@@H](c2ccccc2F)[C@@H]2CCCC=C12 (relative stereo)
250
CN[C@@H]1[C@H](O[C@H]2[C@H](O[C@H]3[C@H](O)[C@@H](O)[C@H](N=C(N)N)[C@@H](O)[C@@H]3N=C(N)N)O[C@@H](C)[C@]2(O)C=O)O[C@@H](CO)[C@H](O)[C@H]1O
6.25
N#CC1=C(N)[C@]2(C(=O)Nc3ccccc32)[C@@H](c2ccccc2F)[C@@H]2CCCC=C12 (mixture of isomers)
1000
Cc1ccc([C@H]2[C@@H]3CCCC=C3C(C#N)=C(N)C23C(=O)c2ccccc2C3=O)cc1 (relative stereo)
500
N#CC1=C(N)C2(C(=O)c3ccccc3C2=O)[C@@H](c2ccoc2)[C@@H]2CCCC=C12 (relative stereo)
250
Cc1ccc([C@H]2[C@@H]3CCC=C3C(C#N)=C(N)C23C(=O)c2ccccc2C3=O)cc1 (relative stereo)
125

----------
Test system: Klebsiella aerogenes
testProtocol: Antimicrobial activity against Enterobacter aerogenes MTCC 111 assessed as absence of visible growth after 48 to 72 hrs
Assay type: functional
parameterMeasured: MIC (µg/mL)

Cc1ccc([C@H]2[C@@H]3CCCC=C3C(C#N)=C(N)C23C(=O)c2ccccc2C3=O)cc1 (relative stereo)
250
N#CC1=C(N)[C@]2(C(=O)Nc3ccccc32)[C@@H](c2ccc(Cl)cc2)[C@@H]2CCCC=C12
250
N#CC1=C(N)C2(C(=O)c3ccccc3C2=O)[C@@H](c2ccccc2F)[C@@H]2CCC=C12 (relative stereo)
250
N#CC1=C(N)C2(C(=O)c3ccccc3C2=O)[C@@H](c2cccc3ccccc23)[C@@H]2CCCC=C12 (relative stereo)
125
N#CC1=C(N)[C@]2(C(=O)Nc3ccccc32)[C@@H](c2cccs2)[C@@H]2CCCC=C12
125
Cc1ccc([C@H]2[C@@H]3CCCCC=C3C(C#N)=C(N)C23C(=O)c2ccccc2C3=O)cc1 (relative stereo)
125
N#CC1=C(N)[C@]2(C(=O)Nc3ccccc32)[C@@H](c2ccc(Br)cc2)[C@@H]2CCCC=C12
250

----------
Each item that follows carries a reported inhibition zone (IZ).
Test system: Shigella flexneri
testProtocol: Antimicrobial activity against Shigella flexneri MTCC 1457 assessed as zone of inhibition at 1 mg/disc after 24 hrs incubation by disc diffusion assay
Format: functional
parameterMeasured: inhibition zone (IZ) (mm)

N#CC1=C(N)C2(C(=O)c3ccccc3C2=O)[C@@H](c2cccs2)[C@@H]2CCCC=C12 (relative stereo)
24
Cc1ccc([C@H]2[C@@H]3CCCC=C3C(C#N)=C(N)[C@]23C(=O)Nc2ccccc23)cc1
9
N#CC1=C(N)C2(C(=O)c3ccccc3C2=O)[C@@H](c2cccc3ccccc23)[C@@H]2CCCC=C12 (relative stereo)
21
N#CC1=C(N)[C@]2(C(=O)Nc3ccccc32)[C@@H](c2cccs2)[C@@H]2CCCC=C12
25
N#CC1=C(N)C2(C(=O)c3ccccc3C2=O)[C@@H](c2ccc(Cl)cc2)[C@@H]2CCCCC=C12 (relative stereo)
22
N#CC1=C(N)C2(C(=O)c3ccccc3C2=O)[C@@H](c2ccc(Cl)cc2)[C@@H]2CCCC=C12 (relative stereo)
8

----------
Tested on: Shigella flexneri
testProtocol: Antimicrobial activity against Shigella flexneri MTCC 1457 assessed as zone of inhibition at 1 mg/disc after 24 hrs incubation by disc diffusion assay
Type: functional
# label = Y if inhibition zone (IZ) >= 10 mm else N

Cc1ccc([C@H]2[C@@H]3CCCCC=C3C(C#N)=C(N)C23C(=O)c2ccccc2C3=O)cc1 (relative stereo)
Y
Cc1ccc([C@H]2[C@@H]3CCC=C3C(C#N)=C(N)C23C(=O)c2ccccc2C3=O)cc1 (relative stereo)
Y
N#CC1=C(N)C2(C(=O)c3ccccc3C2=O)[C@@H](c2ccccc2F)[C@@H]2CCCC=C12 (relative stereo)
Y
N#CC1=C(N)[C@]2(C(=O)Nc3ccccc32)[C@@H](c2ccccc2F)[C@@H]2CCCC=C12 (mixture of isomers)
N
N#CC1=C(N)[C@]2(C(=O)Nc3ccccc32)[C@@H](c2ccc(Br)cc2)[C@@H]2CCCC=C12
N
COc1ccc([C@H]2[C@@H]3CCCC=C3C(C#N)=C(N)C23C(=O)CCCC3=O)cc1 (relative stereo)
Y

----------
Test system: Micrococcus luteus
testProtocol: Antimicrobial activity against Micrococcus luteus MTCC 106 assessed as zone of inhibition at 1 mg/disc after 24 hrs incubation by disc diffusion assay
Format: functional
The label depends only on inhibition zone (IZ): Yes if it is at least 10 mm, No if it is smaller.

Cc1ccc([C@H]2[C@@H]3CCCC=C3C(C#N)=C(N)[C@]23C(=O)Nc2ccccc23)cc1
No
Cc1ccc([C@H]2[C@@H]3CCCC=C3C(C#N)=C(N)C23C(=O)c2ccccc2C3=O)cc1 (relative stereo)
No
N#CC1=C(N)C2(C(=O)c3ccccc3C2=O)[C@@H](c2ccc(Cl)cc2)[C@@H]2CCCCC=C12 (relative stereo)
Yes
N#CC1=C(N)[C@]2(C(=O)Nc3ccccc32)[C@@H](c2ccc(Cl)cc2)[C@@H]2CCCC=C12
No
COc1ccc([C@H]2[C@@H]3CCCC=C3C(C#N)=C(N)C23C(=O)c2ccccc2C3=O)cc1 (relative stereo)
Yes
N#CC1=C(N)C2(C(=O)c3ccccc3C2=O)[C@@H](c2cccc3ccccc23)[C@@H]2CCCC=C12 (relative stereo)
Yes
Cc1ccc([C@H]2[C@@H]3CCCCC=C3C(C#N)=C(N)[C@]23C(=O)Nc2ccccc23)cc1
Yes
CN[C@@H]1[C@H](O[C@H]2[C@H](O[C@H]3[C@H](O)[C@@H](O)[C@H](N=C(N)N)[C@@H](O)[C@@H]3N=C(N)N)O[C@@H](C)[C@]2(O)C=O)O[C@@H](CO)[C@H](O)[C@H]1O [STREPTOMYCIN]
Yes
N#CC1=C(N)[C@]2(C(=O)Nc3ccccc32)[C@@H](c2ccc(Br)cc2)[C@@H]2CCCC=C12
No
N#CC1=C(N)C2(C(=O)c3ccccc3C2=O)[C@@H](c2ccccc2F)[C@@H]2CCCC=C12 (relative stereo)
Yes
COc1ccc([C@H]2[C@@H]3CCCC=C3C(C#N)=C(N)[C@]23C(=O)Nc2ccccc23)cc1
No
Cc1ccc([C@H]2[C@@H]3CCC=C3C(C#N)=C(N)C23C(=O)c2ccccc2C3=O)cc1 (relative stereo)
Yes
N#CC1=C(N)[C@]2(C(=O)Nc3ccccc32)[C@@H](c2cccs2)[C@@H]2CCCC=C12
Yes
COc1ccc([C@H]2[C@@H]3CCCC=C3C(C#N)=C(N)C23C(=O)CCCC3=O)cc1 (relative stereo)
Yes
N#CC1=C(N)C2(C(=O)c3ccccc3C2=O)[C@@H](c2ccccc2F)[C@@H]2CCC=C12 (relative stereo)
Yes
N#CC1=C(N)[C@]2(C(=O)Nc3ccccc32)[C@@H](c2ccoc2)[C@@H]2CCCC=C12
No
N#CC1=C(N)C2(C(=O)c3ccccc3C2=O)[C@@H](c2ccoc2)[C@@H]2CCCC=C12 (relative stereo)
Yes
COc1ccc([C@H]2[C@@H]3CCC=C3C(C#N)=C(N)C23C(=O)c2ccccc2C3=O)cc1 (relative stereo)
No
